Tested on: Cullin-3 (CUL3) neddylation
TEST: AlphaLISA assay for Cullin-3 (CUL3) neddylation in TF 1 cells
Type: cell-based
PARTICULARS: Homo sapiens, TF-1, 3 h, 3 hours treatment
Measured IC50 accompanies every entry in the list below.
METRIC: IC50

1. CCN1C(=O)[C@@H](NC(=O)c2cccc(C(F)(F)F)c2)[C@@H](c2ccc(F)cc2)c2c(C(=O)N(C)[C@@H](C#N)CCN3CCC34COC4)nn(-c3ccccc3)c21 : ≤ 0.1 µM
2. CCN1C(=O)[C@@H](NC(=O)c2cccc(C(F)(F)F)c2)[C@@H](c2ccc(F)cc2)c2c(C(=O)N(C)[C@@H](C#N)CCN3CCN(C4COC4)CC3)nn(-c3ccccc3)c21 : ≤ 0.1 µM
3. CCN1C(=O)[C@@H](NC(=O)c2cccc(C(F)(F)F)c2)[C@@H](c2ccc(F)cc2)c2c(C(=O)N3[C@H](C#N)C[C@H]4C[C@H]43)nn(C3CC3)c21 : ≤ 0.1 µM
